Cited source for all entries: PubChem BioAssay AID1259407

# Test system: CCRIS mutagenicity, Ames/micronucleus/aberration tests
# assayProcedure: CCRIS mutagenicity studies
# measurementConditions: Test System: AMES SALMONELLA TYPHIMURIUM; Strain/Indicator: TA1538; Metabolic Activation: RAT, LIVER, S-9, AROCLOR 1254; Method: STANDARD PLATE
The source made the active and inactive calls. How the calls were made is not given here.
assayMetric: mutagenic call

These recorded examples may help you get a feel for the data.
O=C1NC(=O)C(c2ccccc2)(c2ccccc2)N1	inactive; negative
CC(=O)c1ccccn1	inactive; negative
CC(C)(CO)[C@@H](O)C(=O)NCCCO	inactive; negative
COCC1O[C@@H](O[C@@H]2C(COC)OC(OC)C(OC)C2OC)C(OC)C(OC)C1OC (stereo partly drawn)	inactive; negative
c1cnc2c(c1)-c1ncsc1CC2	inactive; negative

## Task Let me know recorded mutagenic call for "NCCNCCO" , thanks.
## Result inactive; negative

## Task Let me know recorded mutagenic call for "Nc1ccc2ccc3cccc4ccc1c2c34" , thanks.
## Result active; positive

## Task Let me know recorded mutagenic call for "O=[N+]([O-])C1=Cc2c3ccc4ccccc4c3cc3cccc1c23" , thanks.
## Result inactive; negative

## Task Let me know recorded mutagenic call for "COc1cc(/C=C/C(=O)CC(=O)/C=C/c2ccc(O)c(OC)c2)ccc1O" , thanks.
## Result inactive; negative

## Task Let me know recorded mutagenic call for "O=[N+]([O-])C1=Cc2c3c1cccc3cc1ccc3ccccc3c21" , thanks.
## Result active; positive

## Task Let me know recorded mutagenic call for "Cc1ccc(NCCO)cc1O" , thanks.
## Result inactive; negative

## Task Let me know recorded mutagenic call for "OCCNc1ccc(N=Nc2ccc(N(CCO)CCO)cc2)cc1" , thanks.
## Result inactive; negative

## Task Let me know recorded mutagenic call for "CCCO" , thanks.
## Result inactive; negative

---

# System: CCRIS mutagenicity, Ames/micronucleus/aberration tests
# assayProcedure: CCRIS mutagenicity studies
# measurementConditions: Test System: AMES SALMONELLA TYPHIMURIUM; Strain/Indicator: TA100; Metabolic Activation: RAT, LIVER, S-9, AROCLOR 1254; Method: STANDARD PLATE
Active and inactive are the calls of the source. No rule for the calls is given here.
Reply using exactly one outcome from active, inactive

## Task Assay result, entry "CCCCC/C=C/C(=O)CCc1ccc(O)c(OC)c1" — outcome?
## Result active

## Task Assay result, entry "O=C(O)c1cc(=O)c2c(OCC(O)COc3cccc4oc(C(=O)O)cc(=O)c34)cccc2o1" — outcome?
## Result inactive

## Task Assay result, entry "CN=C1C=CC(=C(c2ccc(NC)cc2)c2ccc(N(C)C)cc2)C=C1" — outcome?
## Result inactive

## Task Assay result, entry "Cc1ccc2c(=O)c3cccc4ccc1c2c43" — outcome?
## Result active

## Task Assay result, entry "O=C1CCC(=O)N1c1ccc(Cl)c(Cl)c1Cl" — outcome?
## Result inactive

## Task Assay result, entry "C=C(C)c1ccc(C)c2ccc(C=O)c-2c1" — outcome?
## Result active

---

# Test system: CCRIS mutagenicity, Ames/micronucleus/aberration tests
# assayProcedure: CCRIS mutagenicity studies
# measurementConditions: Test System: AMES SALMONELLA TYPHIMURIUM; Strain/Indicator: TA102; Metabolic Activation: NONE; Method: PREINCUBATION
# From the text: The CCRIS database contains chemical records with carcinogenicity, mutagenicity, tumor promotion, and tumor inhibition test results. It was developed by the National Cancer Institute (NCI). Data are derived from studies cited in primary journals, current awareness tools, NCI reports, and other sources. Test results have been reviewed by experts in carcinogenesis and mutagenesis. CCRIS provides historical information from the years 1985 - 2011. It is no longer updated. […]
Calls of active or inactive are those of the source. No rule for the calls is given here.
Reply using exactly one outcome from Y (active), N (inactive)

## Task Assay result, entry "COc1cc(C(C)=O)ccc1O" — outcome?
## Result N

## Task Assay result, entry "COc1cc(NCCCCCNC(C)C)c2ncccc2c1" — outcome?
## Result N

## Task Assay result, entry "Cc1c2ccccc2cc2c3c(ccc12)C(=O)C(=O)C=C3" — outcome?
## Result N

## Task Assay result, entry "O.O.O=C([O-])[C@H](O)[C@@H](O)[C@H](O)[C@H](O)CO.O=C([O-])[C@H](O)[C@@H](O)[C@H](O)[C@H](O)CO.[Fe+2]" — outcome?
## Result N

## Task Assay result, entry "O=[N+]([O-])[C-]1CCCC1" — outcome?
## Result Y

## Task Assay result, entry "C=C(C)CC(C)(C)C" — outcome?
## Result N

---

# System: CCRIS mutagenicity, Ames/micronucleus/aberration tests
# assayProcedure: CCRIS mutagenicity studies
# measurementConditions: Test System: AMES SALMONELLA TYPHIMURIUM; Strain/Indicator: TA1537; Metabolic Activation: NONE; Method: STANDARD PLATE
The source made the active and inactive calls. No rule for the calls is given here.
assayMetric: mutagenic call

These recorded examples may help you get a feel for the data.
CCc1cn([C@H]2C[C@H](O)[C@@H](CO)O2)c(=O)[nH]c1=O	inactive; negative
O=[N+]([O-])c1cc(NS(=O)(=O)c2cccc3cccnc23)ccc1Cl	inactive; negative
CCN(C(=O)CCCCl)c1snc2ccccc12	inactive; negative
OCCNc1ccc(N=Nc2ccc(N(CCO)CCO)cc2)cc1	inactive; negative
ClC(Cl)Cl	active; positive

## Task Let me know recorded mutagenic call for "CC(=O)c1ccccn1" , thanks.
## Result inactive; negative

## Task Let me know recorded mutagenic call for O=C1CCC(N2C(=O)c3ccccc3C2=O)C(=O)N1 (stereo unspecified) , thanks.
## Result inactive; negative

---

# Tested on: CCRIS mutagenicity, Ames/micronucleus/aberration tests
# assayProcedure: CCRIS mutagenicity studies
# measurementConditions: Test System: AMES SALMONELLA TYPHIMURIUM; Strain/Indicator: TA1538; Metabolic Activation: RAT, LIVER, S-9, AROCLOR 1254; Method: STANDARD PLATE
Active and inactive are the calls of the source. The rule behind the calls is not given here.
Reply using exactly one outcome from Y for active, N for inactive

## Task Assay result, entry O=NN(CC(=O)O)CC1(O)OCC(O)C(O)C1O (stereo not drawn) — outcome?
## Result N

## Task Assay result, entry "C=CC(=O)OCCCCCCOC(=O)C=C" — outcome?
## Result N

## Task Assay result, entry "CC[n+]1c(-c2ccccc2)c2cc(N)ccc2c2ccc(N)cc21" — outcome?
## Result Y

## Task Assay result, entry "C=C(C)OC(C)=O" — outcome?
## Result N

## Task Assay result, entry "O=S(O)O" — outcome?
## Result N

## Task Assay result, entry "NCCNCCNCCN" — outcome?
## Result N

## Task Assay result, entry CC(C)Cc1ccc(C(C)C(=O)O)cc1 (stereo not drawn) — outcome?
## Result N

## Task Assay result, entry "Nc1ccc(Cl)c(N)c1" — outcome?
## Result Y

---

# System: CCRIS mutagenicity, Ames/micronucleus/aberration tests
# assayProcedure: CCRIS mutagenicity studies
# measurementConditions: Test System: AMES SALMONELLA TYPHIMURIUM; Strain/Indicator: TA98; Metabolic Activation: S-9; Method: PREINCUBATION
The source made the active and inactive calls. No rule for the calls is given here.
Reply using exactly one outcome from active, inactive

## Task Assay result, entry "Nc1cc2nc3ccccc3nc2cc1O" — outcome?
## Result inactive

## Task Assay result, entry "Nc1cc2nc3ccccc3nc2cc1N" — outcome?
## Result active

## Task Assay result, entry "CN(C)/N=N/c1nc[nH]c1C(N)=O" — outcome?
## Result inactive

## Task Assay result, entry "C[C@@H](O)[C@H]1C(=O)N2C(C(=O)O)=C([C@H]3CCCO3)S[C@H]12" — outcome?
## Result inactive

## Task Assay result, entry "Cc1cnc2cc3nc(C)n(C)c3c(C)c2n1" — outcome?
## Result inactive

## Task Assay result, entry "Nc1cccc(N)c1" — outcome?
## Result active

---

# System: CCRIS mutagenicity, Ames/micronucleus/aberration tests
# assayProcedure: CCRIS mutagenicity studies
# measurementConditions: Test System: AMES SALMONELLA TYPHIMURIUM; Strain/Indicator: TA1535; Metabolic Activation: NONE; Method: PREINCUBATION
Active and inactive are the calls of the source. No rule for the calls is given here.
Reply using exactly one outcome from y (active), n (inactive)

## Task Assay result, entry "COc1ccc(N=[N+]([O-])c2ccc(OC)cc2)cc1" — outcome?
## Result n

## Task Assay result, entry "CC1=CC(=O)c2c(O)cccc2C1=O" — outcome?
## Result n

## Task Assay result, entry "Cc1ccccc1C#N" — outcome?
## Result n

## Task Assay result, entry CCCCCCCCCCC1CO1 (stereo not drawn) — outcome?
## Result n

## Task Assay result, entry "Clc1cccc2ccccc12" — outcome?
## Result n

## Task Assay result, entry "CCCCCCCCCCCCCCCCCCCC" — outcome?
## Result n

## Task Assay result, entry "CC(C)(C)C(=O)C1C(=O)c2ccccc2C1=O" — outcome?
## Result n

## Task Assay result, entry "CCOCCCl" — outcome?
## Result n

## Task Assay result, entry "Oc1cc(Cl)cc(Cl)c1" — outcome?
## Result n

## Task Assay result, entry "O=C(Cl)c1ccccc1[N+](=O)[O-]" — outcome?
## Result n

## Task Assay result, entry "CCCOC(C(=O)OC1CCN(C)CC1)(c1ccccc1)c1ccccc1" — outcome?
## Result n

## Task Assay result, entry "CCN(CC)c1ccc2c(-c3ccccc3C(=O)O)c3ccc(=[N+](CC)CC)cc-3oc2c1" — outcome?
## Result n

## Task Assay result, entry "C[C@H]1SC[C@@H](C(=O)N[C@@H](Cc2cnc[nH]2)C(=O)N2CCC[C@H]2C(N)=O)NC1=O" — outcome?
## Result n

## Task Assay result, entry CCCCC(CC)CO (stereo not drawn) — outcome?
## Result n

## Task Assay result, entry COC(C)CCO (stereo not drawn) — outcome?
## Result n

## Task Assay result, entry "O=C1c2c(O)ccc([N+](=O)[O-])c2C(=O)c2c([N+](=O)[O-])ccc(O)c21" — outcome?
## Result y

## Task Assay result, entry "COC(=O)c1ccc(C(=O)OC)cc1" — outcome?
## Result n

## Task Assay result, entry "Cc1c(C)c2c(c(C)c1OC(=O)CCC(=O)O)CC[C@@](C)(CCC[C@H](C)CCC[C@H](C)CCCC(C)C)O2" — outcome?
## Result n

## Task Assay result, entry "Cc1ncc[nH]1" — outcome?
## Result n

## Task Assay result, entry "[O-][Cl+3]([O-])([O-])O" — outcome?
## Result n

## Task Assay result, entry "C=C(CC)C(=O)c1ccc(OCC(=O)O)c(Cl)c1Cl" — outcome?
## Result n

## Task Assay result, entry "O=[N+]([O-])c1ccccc1O" — outcome?
## Result n

## Task Assay result, entry "COc1ccc(N)cc1" — outcome?
## Result n

## Task Assay result, entry C=CCOCC1CO1 (stereo not drawn) — outcome?
## Result y

## Task Assay result, entry "O=C(O)/C=C/c1ccc([N+](=O)[O-])cc1" — outcome?
## Result y

## Task Assay result, entry "O=C1c2c(Br)c(Br)c(Br)c(Br)c2C(=O)N1CCN1C(=O)c2c(Br)c(Br)c(Br)c(Br)c2C1=O" — outcome?
## Result n

## Task Assay result, entry "O=CCC=O" — outcome?
## Result n

## Task Assay result, entry "NCCCN1CCN(CCCN)CC1" — outcome?
## Result n
